target: T1, recombinant human full-length TDP-43 (human, UniProt Q13148 1-414)
T1 construct: Recombinant full-length protein; also called FL TDP-43; recFL TDP-43
T1 sequence (Q13148 whole entry): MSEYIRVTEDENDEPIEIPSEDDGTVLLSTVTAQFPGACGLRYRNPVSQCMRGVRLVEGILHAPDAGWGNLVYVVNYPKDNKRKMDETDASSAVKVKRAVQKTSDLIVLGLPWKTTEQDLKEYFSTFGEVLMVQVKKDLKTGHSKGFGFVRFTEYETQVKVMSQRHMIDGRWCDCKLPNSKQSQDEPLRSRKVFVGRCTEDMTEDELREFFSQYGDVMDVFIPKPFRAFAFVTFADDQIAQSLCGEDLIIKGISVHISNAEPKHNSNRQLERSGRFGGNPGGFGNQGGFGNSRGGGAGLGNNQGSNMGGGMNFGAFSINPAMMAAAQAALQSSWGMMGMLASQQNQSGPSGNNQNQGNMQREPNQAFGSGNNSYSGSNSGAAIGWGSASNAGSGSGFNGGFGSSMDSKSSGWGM
assay.explanation: SPR affinity (Biacore 8K), antibody captured on anti-mouse IgG, TDP-43 monomer as analyte, single cycle kinetics, 1:1 model
measured.attribute: Kd (nM)
Numeric answer only, unit nM assumed.

The recorded Kd for ACI-7062-406E3-Ab1 (antibody, IgG2a, V domains shown, also called 406E3D5; clone 5) VH: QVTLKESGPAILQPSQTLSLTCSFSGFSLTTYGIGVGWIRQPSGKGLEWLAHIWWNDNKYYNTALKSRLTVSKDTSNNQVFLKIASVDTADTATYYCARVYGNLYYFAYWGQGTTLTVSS VL: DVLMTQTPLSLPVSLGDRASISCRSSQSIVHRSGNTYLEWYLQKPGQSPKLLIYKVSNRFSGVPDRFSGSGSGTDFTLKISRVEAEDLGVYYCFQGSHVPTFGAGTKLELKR is 193
